study_system: aldosterone synthase (CYP11B2) (Macaca fascicularis)
test_method_notes: Inhibition of aldosterone synthase (cynomolgus adrenal mitochondria, aldosterone by mass spectrometry)
Assay type: biochemical, cynomolgus monkey
protocol_conditions: 2 μM corticosterone substrate, 50 units CYP11B2, 90 min, 37° C.; read-out: Aldosterone Inhibition IC50
value_type: pIC50
Interpret pIC50 as the negative base-10 log of the concentration measured in mol/L.

Here is how some compounds turned out for pIC50.
compound	study_system	pIC50
N#Cc1ccc(-n2cnc3c2C(=O)CC2(CC2)C3)cc1Cl	aldosterone synthase (CYP11B2) (Macaca fascicularis)	8.30
CC1(C)CC(=O)c2c(ncn2CC2CCOCC2)C1	aldosterone synthase (CYP11B2) (Macaca fascicularis)	6.33
CC1(C)CC(=O)c2c(ncn2-c2cc(Cl)cc(Cl)c2)C1	aldosterone synthase (CYP11B2) (Macaca fascicularis)	7.66

Look up and state reported pIC50 for CCO[C@H]1C[C@H](n2cnc3c2C(=O)CC(C)(C)C3)C12CCC2 (relative stereo)
7.14

Look up and state reported pIC50 for CN1C(=O)CCc2cc(-n3cnc4c3C(=O)CCC4)ccc21
7.22

Look up and state reported pIC50 for O=C1CC2(CCC2)Cc2ncn(-c3ccc(F)c(F)c3)c21
7.70

Look up and state reported pIC50 for CNC(=O)[C@H]1CC(=O)c2c(ncn2-c2ccc(C#N)c(Cl)c2)C1
7.24

Look up and state reported pIC50 for Cc1nnsc1Cn1cnc2c1C(=O)CC(C)(C)C2
6.60

###

study_system: aldosterone synthase (CYP11B2) (Macaca fascicularis, UniProt A0A2K5UPL9)
Sequence (A0A2K5UPL9 1-503): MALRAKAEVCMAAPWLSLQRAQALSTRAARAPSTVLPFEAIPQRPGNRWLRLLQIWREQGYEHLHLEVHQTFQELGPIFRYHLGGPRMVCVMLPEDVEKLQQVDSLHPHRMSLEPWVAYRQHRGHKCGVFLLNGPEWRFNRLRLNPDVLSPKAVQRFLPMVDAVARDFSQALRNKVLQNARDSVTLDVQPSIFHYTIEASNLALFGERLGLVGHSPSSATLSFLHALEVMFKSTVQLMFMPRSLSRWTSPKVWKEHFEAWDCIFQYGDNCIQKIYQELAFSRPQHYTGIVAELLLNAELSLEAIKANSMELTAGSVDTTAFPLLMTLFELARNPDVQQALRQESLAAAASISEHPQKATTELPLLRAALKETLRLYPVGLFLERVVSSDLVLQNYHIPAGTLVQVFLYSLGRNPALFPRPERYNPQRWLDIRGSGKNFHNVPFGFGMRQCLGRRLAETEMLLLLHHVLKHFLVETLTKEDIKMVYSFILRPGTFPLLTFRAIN
test_method_notes: Inhibition of aldosterone synthase (cynomolgus adrenal mitochondria, aldosterone by mass spectrometry)
Type: biochemical, cynomolgus monkey
protocol_conditions: 2 μM corticosterone substrate, 50 units CYP11B2, 90 min, 37° C.; read-out: Aldosterone Inhibition IC50
Each entry below lists one item and its recorded pIC50 value.
Interpret pIC50 as the negative base-10 log of the concentration measured in mol/L.

Here is how some molecules turned out for pIC50.
molecule	study_system	pIC50
CC(=O)N1CCc2cc(-n3cnc4c3C(=O)CCC4)ccc21	aldosterone synthase (CYP11B2) (Macaca fascicularis, UniProt A0A2K5UPL9)	6.29
CN1C(=O)CCc2cc(-n3cnc4c3C(=O)CCC4)cnc21	aldosterone synthase (CYP11B2) (Macaca fascicularis, UniProt A0A2K5UPL9)	6.82
CC1(C)CC(=O)c2c(ncn2-c2ccc(C#N)c(Cl)c2)C1	aldosterone synthase (CYP11B2) (Macaca fascicularis, UniProt A0A2K5UPL9)	8.89
N#Cc1ccc(-n2cnc3c2C(=O)CCC3)c(C2CC2)c1	aldosterone synthase (CYP11B2) (Macaca fascicularis, UniProt A0A2K5UPL9)	7.47
Cc1cc(-n2cnc3c2C(=O)CC(C)(C)C3)ccc1C#N	aldosterone synthase (CYP11B2) (Macaca fascicularis, UniProt A0A2K5UPL9)	8.18
C[C@@H]1Cc2cc(-n3cnc4c3C(=O)CCC4)ccc2O1 (stereo in doubt)	aldosterone synthase (CYP11B2) (Macaca fascicularis, UniProt A0A2K5UPL9)	6.52
CC1(C)CC(=O)c2c(ncn2Cc2ccc(-n3cncn3)cc2)C1	aldosterone synthase (CYP11B2) (Macaca fascicularis, UniProt A0A2K5UPL9)	6.27
N#Cc1ccc(-n2cnc3c2C(=O)CCC3)cc1Cl	aldosterone synthase (CYP11B2) (Macaca fascicularis, UniProt A0A2K5UPL9)	8.06
CC(=O)Nc1ccc(Cn2cnc3c2C(=O)CC(C)(C)C3)cc1	aldosterone synthase (CYP11B2) (Macaca fascicularis, UniProt A0A2K5UPL9)	7.24

Turning to the following molecule.
Look up and state reported pIC50 for CC(=O)c1ccc(-n2cnc3c2C(=O)CC(C)(C)C3)cc1
7.23
